# experimental target: T1, human SIRPγ on stably transfected CHO cells (human, UniProt Q9P1W8 29-387)
# T1 construct: also called Human SIRPγ CHO
# T1 sequence (Q9P1W8 29-387 limits assumed): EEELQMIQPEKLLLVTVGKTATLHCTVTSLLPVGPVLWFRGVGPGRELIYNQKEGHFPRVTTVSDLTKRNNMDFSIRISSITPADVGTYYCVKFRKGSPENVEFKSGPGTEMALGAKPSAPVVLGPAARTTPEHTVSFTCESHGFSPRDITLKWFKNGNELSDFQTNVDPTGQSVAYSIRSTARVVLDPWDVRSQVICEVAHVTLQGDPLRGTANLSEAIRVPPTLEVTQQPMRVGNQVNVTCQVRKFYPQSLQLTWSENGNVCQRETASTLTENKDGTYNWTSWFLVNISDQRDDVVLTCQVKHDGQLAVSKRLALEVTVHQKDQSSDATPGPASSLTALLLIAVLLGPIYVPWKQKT
# method: flow cytometry, myc-scFv PPE
# Description: Selected antibodies were tested for binding to stably transfected human SIRPγ, SIRPαV1, or SIRPβ1 (co-transfected with DAP12) Chinese hamster ovary (CHO) cells via flow cytometry. A titration of select antibodies was added to the cells and detected using a fluorescently labelled secondary anti-rat IgG antibody or anti-human IgG antibody. Graphs depict the median fluorescence intensity (MFI) at each concentration. […]
Classify by MFI fold change over parental CHO. Ranges: bottom bin: < 20 fold; middle bin: ≥ 20 fold and < 30 fold; top bin: ≥ 30 fold

INSERT INTO results (binder, label_class) VALUES
  ('Antibody 39 (scFv, V domains shown, scFv in crude PPE, V5/myc-tagged) VH: QVQLVQSGAEVKKPGASVKVSCKASGGTFSNYGFSWVRQAPGQGLEWMGWMSPSSGNTGYAQKFQGRVTMTRDTSTSTVYMELSSLRSEDTAVYYCARERSGSYFDYWGQGTLVTVSS VL: EIVMTQSPATLSVSPGERATLSCRASQSVSSYLAWYQQKPGQAPRLLIYGTSTRATGIPARFSGSGSGTEFTLTISSLQSEDFAVYYCQQYGSLPFTFGQGTRLEIK', 'bottom bin'),
  ('Antibody 41 (scFv, V domains shown, scFv in crude PPE, V5/myc-tagged) VH: QVQLVQSGAEVKKPGSSVKVSCKASGGTFSNYAISWVRQAPGQGLEWMGGIIPIFGSTASYAQKFQGRVTITADESTSTAYMELSSLRSEDTAVYYCARGVGDDTLTDWGQGTLVTVSS VL: DIVMTQSPLSLPVTPGEPASISCRSSQSLLHSNGYNYLDWYLQKPGQSPQLLIYAASSLQSGVPDRFSGSGSGTDFTLKISRVEAEDVGVYYCMQALQTPLTFGGGTKVEIK', 'middle bin'),
  ('Antibody 18 (scFv, V domains shown, scFv in crude PPE, V5/myc-tagged) VH: QVQLVQSGAEVKKPGASVKVSCKASGYTFTGYYMHWVRQAPGQGLEWMGWMNPNSGNTGYAQKFQGRVTMTRDTSTSTVYMELSSLRSEDTAVYYCARGSGYDAGVFDYWGQGTLVTVSS VL: DIQMTQSPSSLSASVGDRVTITCRASQGIGNDLAWYQQKPGKAPKLLIYDAKDLHPGVPSRFSGSGSGTDFTLTISSLQPEDFATYYCQQSYSFPRTFGQGTRLEIK', 'middle bin'),
  ('Antibody 52 (scFv, V domains shown, scFv in crude PPE, V5/myc-tagged) VH: QVQLVQSGAEVKKPGASVKVSCKASGYTFTSYDINWVRQAPGQGLEWMGWISGYNGNTNYAQKFQGRVTMTRDTSTSTVYMELSSLRSEDTAVYYCARSFDWLLLLDYWGQGTLVTVSS VL: DIQMTQSPSSLSASVGDRVTITCRASQSISSWLAWYQQKPGKAPKLLIYDATTLESGVPSRFSGSGSGTDFTLTISSLQPEDFATYYCQQYDSYPWTFGQGTKLEIK', 'bottom bin'),
  ('Antibody 28 (scFv, V domains shown, scFv in crude PPE, V5/myc-tagged) VH: QVQLVQSGAEVKKPGASVKVSCKASGYTFTSYNIHWVRQAPGQGLEWMGWISAYNGNTNYAQKLQGRVTMTRDTSTSTVYMELSSLRSEDTAVYYCALDGGQLGVAFDIWGQGTMVTVSS VL: DIQMTQSPSSLSASVGDRVTITCRASQGISNWLAWYQQKPGKAPKLLIYDASNLDAGVPSRFSGSGSGTDFTLTISSLQPEDFATYYCQQANSLPLTFGGGTKVEIK', 'top bin');

Bin? Antibody 30 (scFv, V domains shown, scFv in crude PPE, V5/myc-tagged) VH: QVQLVQSGAEVKKPGASVKVSCKASGYTFTNFDINWVRQAPGQGLEWMGWISAYNGHTNYAQNLQGRVTMTRDTSTSTVYMELSSLRSEDTAVYYCAQEAAAGYFDYWGQGTLVTVSS VL: DIQMTQSPSSLSASVGDRVTITCRASQDIRNDLAWYQQKPGKAPKLLIYDASNLETGVPSRFSGSGSGTDFTLTISSLQPEDFATYYCQQSYGTPYTFGQGTKLEIK
bottom bin

Please do the same for Antibody 12 (scFv, V domains shown, scFv in crude PPE, V5/myc-tagged) VH: QVQLVQSGAEVKKPGASVKVSCKASGGTFGSYGINWVRQAPGQGLEWMGWISAYNGNTNYAQKLQGRVTMTRDTSTSTVYMELSSLRSEDTAVYYCARDGIDYGGNSGYDYWGQGTLVTVSS VL: DIQMTQSPSSLSASVGDRVTITCRASQNIRNYLNWYQQKPGKAPKLLIYAASSLQGGVPSRFSGSGSGTDFTLTISSLQPEDFATYYCQQSYNGPYTFGQGTKVEIK as well.
bottom bin
